Assay: Plasma levels of tamoxifen and metabolites after intraductal injection of tamoxifen formulations (LC-MS)
Type: in vivo
Conditions: Tamoxifen in plasma
measure name: half-life (h)

compound: CC/C(=C(\c1ccccc1)c1ccc(OCCN(C)C)cc1)c1ccccc1 [Free TMX, tamoxifen]
measure name: half-life
unit text: h
result value: 19.5

---

Assay: Breast (mammary gland) concentration of tamoxifen and 4-hydroxytamoxifen after intraductal injection
Format: in vivo
Settings: breast (mammary gland), tamoxifen in breast

compound: CC/C(=C(\c1ccccc1)c1ccc(OCCN(C)C)cc1)c1ccccc1 [Free TMX, tamoxifen]
unit text: ng/mL
Cmax: 4370

---

Assay: Plasma levels of tamoxifen and metabolites after intraductal injection of tamoxifen formulations (LC-MS)
Assay type: in vivo
Conditions: Tamoxifen in plasma
measure name: AUC (ng·h/mL)

compound: CC/C(=C(\c1ccccc1)c1ccc(OCCN(C)C)cc1)c1ccccc1 [Free TMX, tamoxifen]
unit text: ng·h/mL
result value: 116

The reported numbers originate from patent US20200121605A1.
